- targetDesc: Protein arginine N-methyltransferase 6 (Homo sapiens)
- testDescription: Inhibition of human PRMT6 using GST-GAR as substrate and SAM as cofactor at 10 uM by radiometric HotSpot assay relative to control
Measured inhibition, listed per entry.

Nc1ncnc2c1ncn2[C@@H]1O[C@H](CSCCNC(=O)NCc2ccccc2)[C@@H](O)[C@H]1O : 70%
Nc1cccc(-c2cccc(CNCCSC[C@H]3O[C@@H](n4cnc5c(N)ncnc54)[C@H](O)[C@@H]3O)c2)c1 : 50%

Please turn your attention to the following entry.
*Q* Entry `Nc1ncnc2c1ncn2[C@@H]1O[C@H](CSCCOc2ccc(-c3ccc(Cl)cc3)cc2)[C@@H](O)[C@H]1O` has what inhibition?
*A* < 50%

----------
- targetDesc: Protein arginine N-methyltransferase 8 (Homo sapiens, UniProt Q9NR22)
- Sequence (Q9NR22 2-394 limits assumed): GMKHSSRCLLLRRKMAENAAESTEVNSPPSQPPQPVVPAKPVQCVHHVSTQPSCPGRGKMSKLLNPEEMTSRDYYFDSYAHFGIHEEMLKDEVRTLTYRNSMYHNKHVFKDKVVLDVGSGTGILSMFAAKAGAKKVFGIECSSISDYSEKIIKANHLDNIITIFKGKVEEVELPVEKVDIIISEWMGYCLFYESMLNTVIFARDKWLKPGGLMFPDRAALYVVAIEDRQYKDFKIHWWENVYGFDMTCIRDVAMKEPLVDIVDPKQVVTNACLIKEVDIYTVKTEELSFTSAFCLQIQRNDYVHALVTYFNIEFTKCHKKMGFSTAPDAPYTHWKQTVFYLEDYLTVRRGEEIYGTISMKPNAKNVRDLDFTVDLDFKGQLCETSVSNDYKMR
- testDescription: Inhibition of human PRMT8 using Histone H4 as substrate and SAM as cofactor at 10 uM by radiometric HotSpot assay relative to control
parameterMeasured: inhibition

Some solved cases for reference:
Nc1ncnc2c1ncn2[C@@H]1O[C@H](CSCCOc2ccc(-c3cccc(O)c3)cc2)[C@@H](O)[C@H]1O : < 50%
N=C(NCCCSC[C@H]1O[C@@H](n2cnc3c(NCCCc4ccccc4)ncnc32)[C@H](O)[C@@H]1O)NCC1CCC1 : 70%
N=C(NCCSC[C@H]1O[C@@H](n2cnc3c(N)ncnc32)[C@H](O)[C@@H]1O)Nc1cccc(I)c1 : > 95%
Nc1ncnc2c1ncn2[C@@H]1O[C@H](CSCCNCc2cccc(-c3ccc(C(F)(F)F)cc3)c2)[C@@H](O)[C@H]1O : > 50%

*Q* Entry `Nc1ncnc2c1ncn2[C@@H]1O[C@H](CSCCOc2ccc(-c3ccncc3)cc2)[C@@H](O)[C@H]1O` has what inhibition?
*A* < 50%

*Q* Entry `N=C(NCCCSC[C@H]1O[C@@H](n2cnc3c(N)ncnc32)[C@H](O)[C@@H]1O)Nc1ccccc1` has what inhibition?
*A* > 95%

----------
Measured inhibition, listed per entry.
- targetDesc: UniProt Q9NR22
- testDescription: Inhibition of human PRMT8 using Histone H4 as substrate and SAM as cofactor at 10 uM by radiometric HotSpot assay relative to control

Some solved cases for reference:
Nc1ncnc2c1ncn2[C@@H]1O[C@H](CSCCCNCc2cccc(-c3ccc(O)cc3)c2)[C@@H](O)[C@H]1O : > 50%
Nc1ncnc2c1ncn2[C@@H]1O[C@H](CSCCNC(=O)NCc2ccc(-c3ccc(O)cc3)cc2)[C@@H](O)[C@H]1O : < 30%

*Q* Give inhibition (UniProt Q9NR22) of the following compound: `Nc1ncnc2c1ncn2[C@@H]1O[C@H](CSCCCNC(=O)NCc2ccc(F)cc2)[C@@H](O)[C@H]1O`
*A* < 30%

*Q* Give inhibition (UniProt Q9NR22) of the following compound: `Nc1ncnc2c1ncn2[C@@H]1O[C@H](CSCCNC(=O)NCc2ccc(-c3cccc(O)c3)cc2)[C@@H](O)[C@H]1O`
*A* < 30%

----------
- targetDesc: Histone-arginine methyltransferase CARM1 (Homo sapiens) (UniProt Q86X55)
- Sequence (Q86X55 whole entry): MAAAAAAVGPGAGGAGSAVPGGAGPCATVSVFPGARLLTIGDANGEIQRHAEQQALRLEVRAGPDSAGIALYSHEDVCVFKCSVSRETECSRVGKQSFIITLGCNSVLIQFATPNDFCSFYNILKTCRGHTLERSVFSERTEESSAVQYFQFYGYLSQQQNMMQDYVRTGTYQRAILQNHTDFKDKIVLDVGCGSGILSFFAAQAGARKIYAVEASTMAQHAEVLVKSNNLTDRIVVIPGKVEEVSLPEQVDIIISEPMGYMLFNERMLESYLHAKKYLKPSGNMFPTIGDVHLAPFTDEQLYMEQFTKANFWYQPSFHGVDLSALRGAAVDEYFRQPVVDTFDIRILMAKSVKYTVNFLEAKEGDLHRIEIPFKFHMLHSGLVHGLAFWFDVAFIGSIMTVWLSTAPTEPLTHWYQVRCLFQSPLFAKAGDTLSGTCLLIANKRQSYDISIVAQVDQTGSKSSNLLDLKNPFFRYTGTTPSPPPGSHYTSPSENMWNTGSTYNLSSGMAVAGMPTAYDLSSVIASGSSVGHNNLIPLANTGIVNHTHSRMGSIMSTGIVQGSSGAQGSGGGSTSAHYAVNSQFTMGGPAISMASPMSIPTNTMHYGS
- testDescription: Inhibition of human PRMT4 using histone H3 as substrate and SAM as cofactor at 10 uM by radiometric HotSpot assay relative to control
Calls of active or inactive are those of the source. The calls are words filed in the database; no cut-off is given here.
parameterMeasured: inhibition

Some solved cases for reference:
Nc1ncnc2c1ncn2[C@@H]1O[C@H](CSCCNC(=O)Nc2cccc3ccccc23)[C@@H](O)[C@H]1O : 27%
Nc1ncnc2c1ncn2[C@@H]1O[C@H](CSCCCNCc2cccc(-c3cccc4cn[nH]c34)c2)[C@@H](O)[C@H]1O : > 90%
N=C(NCCCSC[C@H]1O[C@@H](n2cnc3c(NCCCc4ccccc4)ncnc32)[C@H](O)[C@@H]1O)Nc1ccccc1 : Active
Nc1ncnc2c1ncn2[C@@H]1O[C@H](CSCCNC(=O)Nc2ccc(Cl)cc2)[C@@H](O)[C@H]1O : 27%
Nc1ncnc2c1ncn2[C@@H]1O[C@H](CSCCCNC(=O)NCc2ccc3c(c2)OCO3)[C@@H](O)[C@H]1O : 27%

*Q* Entry `N=C(NCCCSC[C@H]1O[C@@H](n2cnc3c(NCCCc4ccccc4)ncnc32)[C@H](O)[C@@H]1O)NCCc1ccccc1` has what inhibition?
*A* Active

*Q* Entry `Nc1ncnc2c1ncn2[C@@H]1O[C@H](CSCCNCc2cccc(-c3cncnc3)c2)[C@@H](O)[C@H]1O` has what inhibition?
*A* > 90%

----------
- targetDesc: Protein arginine N-methyltransferase 6 (Homo sapiens, UniProt Q96LA8)
- Sequence (Q96LA8 whole entry, looked up): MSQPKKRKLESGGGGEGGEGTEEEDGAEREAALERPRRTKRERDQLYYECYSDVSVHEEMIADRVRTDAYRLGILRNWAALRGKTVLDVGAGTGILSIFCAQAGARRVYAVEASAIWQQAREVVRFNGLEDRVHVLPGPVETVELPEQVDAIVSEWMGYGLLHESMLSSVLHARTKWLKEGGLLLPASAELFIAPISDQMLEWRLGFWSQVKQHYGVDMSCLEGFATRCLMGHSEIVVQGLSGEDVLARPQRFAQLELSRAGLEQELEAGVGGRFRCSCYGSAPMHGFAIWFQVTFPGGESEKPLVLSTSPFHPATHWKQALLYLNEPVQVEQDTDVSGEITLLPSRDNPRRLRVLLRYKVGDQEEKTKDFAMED
- testDescription: Inhibition of human PRMT6 using GST-GAR as substrate and SAM as cofactor at 10 uM by radiometric HotSpot assay relative to control
parameterMeasured: inhibition

N=C(NCCSC[C@H]1O[C@@H](n2cnc3c(N)ncnc32)[C@H](O)[C@@H]1O)Nc1cccc(-c2ccoc2)c1 : > 90%

*Q* Entry `COc1cc2nc(-c3ccc(Cl)cc3)nc(NCCSC[C@H]3O[C@@H](n4cnc5c(N)ncnc54)[C@H](O)[C@@H]3O)c2cc1OC` has what inhibition?
*A* > 70%

*Q* Entry `N=C(NCCSC[C@H]1O[C@@H](n2cnc3c(N)ncnc32)[C@H](O)[C@@H]1O)Nc1cccc(-c2ccc(Cl)cc2)c1` has what inhibition?
*A* > 90%

----------
- targetDesc: Protein arginine N-methyltransferase 6 (Homo sapiens, UniProt Q96LA8)
- testDescription: Inhibition of human PRMT6 using GST-GAR as substrate and SAM as cofactor at 10 uM by radiometric HotSpot assay relative to control
Active and inactive are the calls of the source. The rule behind the calls is not given here.
parameterMeasured: inhibition

Some solved cases for reference:
N=C(NCCCSC[C@H]1O[C@@H](n2cnc3c(NCCCc4ccccc4)ncnc32)[C@H](O)[C@@H]1O)NC1CC1 : Active
N=C(NCCCSC[C@H]1O[C@@H](n2cnc3c(N)ncnc32)[C@H](O)[C@@H]1O)Nc1cccc(-c2ccoc2)c1 : > 90%
Nc1ccc(-c2ccc(CNC(=O)NCCSC[C@H]3O[C@@H](n4cnc5c(N)ncnc54)[C@H](O)[C@@H]3O)cc2)cc1 : 70%
Nc1ncnc2c1ncn2[C@@H]1O[C@H](CSCCNCc2cccc(-c3ccc(Cl)cc3)c2)[C@@H](O)[C@H]1O : 50%

*Q* Entry `N=C(NCCCSC[C@H]1O[C@@H](n2cnc3c(N)ncnc32)[C@H](O)[C@@H]1O)NCc1ccccc1` has what inhibition?
*A* > 90%

*Q* Entry `Nc1ncnc2c1ncn2[C@@H]1O[C@H](CSCCNCc2cccc(-c3ccc(F)c(O)c3)c2)[C@@H](O)[C@H]1O` has what inhibition?
*A* 50%

*Q* Entry `N=C(NCCCSC[C@H]1O[C@@H](n2cnc3c(NCCCc4ccccc4)ncnc32)[C@H](O)[C@@H]1O)NC1CCC1` has what inhibition?
*A* Active

*Q* Entry `N=C(NCCCSC[C@H]1O[C@@H](n2cnc3c(NCCCc4ccccc4)ncnc32)[C@H](O)[C@@H]1O)NCCc1ccccc1` has what inhibition?
*A* Active

----------
- targetDesc: Protein arginine N-methyltransferase 1 (Homo sapiens, UniProt Q99873)
- Sequence (Q99873 whole entry, looked up): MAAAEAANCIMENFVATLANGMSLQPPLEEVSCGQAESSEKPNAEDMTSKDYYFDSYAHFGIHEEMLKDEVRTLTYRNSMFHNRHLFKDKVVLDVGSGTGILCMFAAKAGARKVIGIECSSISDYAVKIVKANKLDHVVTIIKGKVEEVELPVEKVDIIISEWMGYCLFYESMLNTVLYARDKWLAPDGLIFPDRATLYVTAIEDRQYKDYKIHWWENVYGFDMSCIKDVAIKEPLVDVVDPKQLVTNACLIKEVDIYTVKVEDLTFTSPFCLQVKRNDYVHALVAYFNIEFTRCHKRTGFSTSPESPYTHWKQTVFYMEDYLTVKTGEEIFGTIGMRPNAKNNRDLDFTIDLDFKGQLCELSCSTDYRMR
- testDescription: Inhibition of human PRMT1 using H4-21peptide as substrate at 10 uM incubated for 10 mins by fluorescence based analysis relative to control
Active and inactive are the calls of the source. The calls are words filed in the database; no cut-off is given here.
parameterMeasured: inhibition

Some solved cases for reference:
N=C(NCCCSC[C@H]1O[C@@H](n2cnc3c(NCCCc4ccccc4)ncnc32)[C@H](O)[C@@H]1O)NCc1ccccc1 : Active
N=C(NCCCSC[C@H]1O[C@@H](n2cnc3c(N)ncnc32)[C@H](O)[C@@H]1O)Nc1cccc(-c2cccnc2)c1 : > 50%
COc1cc2nc(-c3ccoc3)nc(NCCSC[C@H]3O[C@@H](n4cnc5c(N)ncnc54)[C@H](O)[C@@H]3O)c2cc1OC : inactive
Nc1ncnc2c1ncn2[C@@H]1O[C@H](CSCCNC(=O)NC2CCCCC2)[C@@H](O)[C@H]1O : < 50%
COc1cc2nc(-c3cccc(O)c3)nc(NCCSC[C@H]3O[C@@H](n4cnc5c(N)ncnc54)[C@H](O)[C@@H]3O)c2cc1OC : inactive

Please turn your attention to the following entry.
*Q* Entry `N=C(NCCCSC[C@H]1O[C@@H](n2cnc3c(N)ncnc32)[C@H](O)[C@@H]1O)Nc1cccc(-c2ccc(O)cc2)c1` has what inhibition?
*A* > 50%

----------
- targetDesc: Protein arginine N-methyltransferase 1 (Homo sapiens, UniProt Q99873)
- testDescription: Inhibition of human PRMT1 using H4-21peptide as substrate at 10 uM incubated for 10 mins by fluorescence based analysis relative to control
Calls of active or inactive are those of the source. The calls are words filed in the database; no cut-off is given here.
parameterMeasured: inhibition

N=C(NCCCSC[C@H]1O[C@@H](n2cnc3c(N)ncnc32)[C@H](O)[C@@H]1O)Nc1cccc(-c2cccc([N+](=O)[O-])c2)c1 : > 50%
Nc1ncnc2c1ncn2[C@@H]1O[C@H](CSCCCNC(=O)NCc2ccc3c(c2)OCO3)[C@@H](O)[C@H]1O : < 50%
N=C(NCCSC[C@H]1O[C@@H](n2cnc3c(N)ncnc32)[C@H](O)[C@@H]1O)Nc1cccc(-c2ccc(Cl)cc2)c1 : > 50%
N=C(NCCCSC[C@H]1O[C@@H](n2cnc3c(N)ncnc32)[C@H](O)[C@@H]1O)Nc1cccc(-c2ccc(C(F)(F)F)cc2)c1 : > 50%
CCNC(=O)NCCSC[C@H]1O[C@@H](n2cnc3c(N)ncnc32)[C@H](O)[C@@H]1O : < 50%
Nc1ncnc2c1ncn2[C@@H]1O[C@H](CSCCNC(=O)NCc2ccc(-c3cn[nH]c3)cc2)[C@@H](O)[C@H]1O : < 50%

*Q* Entry `CCCCNC(=N)NCCCSC[C@H]1O[C@@H](n2cnc3c(NCCCc4ccccc4)ncnc32)[C@H](O)[C@@H]1O` has what inhibition?
*A* Active

*Q* Entry `Nc1ccc(-c2ccc(CNC(=O)NCCSC[C@H]3O[C@@H](n4cnc5c(N)ncnc54)[C@H](O)[C@@H]3O)cc2)cc1` has what inhibition?
*A* < 50%

*Q* Entry `N=C(NCCCSC[C@H]1O[C@@H](n2cnc3c(N)ncnc32)[C@H](O)[C@@H]1O)Nc1cccc(Br)c1` has what inhibition?
*A* > 50%

*Q* Entry `Nc1ncnc2c1ncn2[C@@H]1O[C@H](CSCCCNC(=O)NCCCc2ccccc2)[C@@H](O)[C@H]1O` has what inhibition?
*A* < 50%

*Q* Entry `N=C(NCCCSC[C@H]1O[C@@H](n2cnc3c(N)ncnc32)[C@H](O)[C@@H]1O)Nc1cccc(-c2n[nH]cc2C(F)(F)F)c1` has what inhibition?
*A* > 50%
